Values were extracted from patent US20170355730A1.

# measuredOn: Pin1 (Example 6, construct not stated) (human) (UniProt Q13526)
# assayText: fluorescence anisotropy
Starred links: 1 amine or outer side, 2 acyl side, 3 side chain; linkers in the order of their positions; H or OH if unused. Non-standard residues stand in square brackets, D forms with d. Primed or numbered codes have the meaning given here. No end group written: not given here. Trimesoyl = O=C(c1cc(C(=O)[*:2])cc(C(=O)[*:3])c1)[*:1]; dPhe(4-CN) = N#Cc1ccc(C[C@@H](N)C(=O)O)cc1; Phe(4-Cl) = N[C@@H](Cc1ccc(Cl)cc1)C(=O)O; Phe(4-F) = N[C@@H](Cc1ccc(F)cc1)C(=O)O; 2Nal = N[C@@H](Cc1ccc2ccccc2c1)C(=O)O; Pip′ = L-homoproline (pipecolyl); Pip = O=C(O)[C@@H]1CCCCN1; d4Phe = not defined here; Dap = NC[C@H](N)C(=O)O; Sar = CNCC(=O)O
The label Yes is reserved for Kd strictly under 1000 nM; No covers values equal to or above it.

>  <binder>
Trimesoyl-[dF][Phe(4-F)][dT][Pip′][2Nal]RA[dF][Dap]RR[2Nal]FRR[Dap]K (linker (positions not given here) via Trimesoyl; not fully specified (C-terminus, bridges); printed as bicyclo[Tm-(D-Phe-Fpa-D-Thr-Pip-Nal-Arg-Ala-D-Phe)-Dap-(Arg-Arg-Nal-Phe-Arg-Arg-Dap)]-Lys) [peptide 43 (Table 18)]

>  <label>
No

$$$$
>  <binder>
Trimesoyl-[dF][Phe(4-F)][dT][Pip′][2Nal]RA[dF][Dap]F[2Nal]RRRR[Dap]K-NH2 (linker (positions not given here) via Trimesoyl; not fully specified (some residues, bridges); printed as bicyclo[Tm-(D-Phe-4-Fpa-D-Thr-Pip-Nal-Arg-Ala-D-Phe)-Dap-(Phe-Nal-Arg-Arg-Arg-Arg-Dap)]-Lys) [peptide 27 (Table 18)]

>  <label>
Yes

$$$$
>  <binder>
Trimesoyl-[d4Phe][Phe(4-F)][dhGlu][Pip][2Nal]RA[dF][Dap]F[2Nal]RRRR[Dap]K (linker (positions not given here) via Trimesoyl; not fully specified (bridges); printed as bicyclo[Tm-(D-4-Phe-Fpa-D-homoGlu-Pip-Nal-Arg-Ala-D-Phe)-Dap-(Phe-Nal-Arg-Arg-Arg-Arg-Dap)]-Lys; reading uncertain) [peptide 41 (Table 18)]

>  <label>
Yes

$$$$
>  <binder>
Trimesoyl-[dF][Phe(4-F)][dT][Pip′][2Nal]RG[dA][Dap]F[2Nal]RRRR[Dap]K-NH2 (linker (positions not given here) via Trimesoyl; not fully specified (some residues, bridges); printed as bicyclo[Tm-(D-Phe-4-Fpa-D-Thr-Pip-Nal-Arg-Gly-D-Ala)-Dap-(Phe-Nal-Arg-Arg-Arg-Arg-Dap)]-Lys) [peptide 26 (Table 18)]

>  <label>
Yes

$$$$
>  <binder>
Trimesoyl-P[Sar][dD][Pip′][2Nal]RV[dA][Dap]F[2Nal]RRRR[Dap]K-NH2 (linker (positions not given here) via Trimesoyl; not fully specified (some residues, bridges); printed as bicyclo[Tm-(Pro-Sar-D-Asp-Pip-Nal-Arg-Val-D-Ala)-Dap-(Phe-Nal-Arg-Arg-Arg-Arg-Dap)]-Lys) [peptide 18 (Table 18)]

>  <label>
No

$$$$
>  <binder>
Trimesoyl-[dPhe(4-CN)][Phe(4-F)][dT][Pip′][2Nal]RA[dF][Dap]F[2Nal]RRRR[Dap]K (linker (positions not given here) via Trimesoyl; not fully specified (C-terminus, bridges); printed as bicyclo[Tm-(D-4-CyanoPhe-Fpa-D-Thr-Pip-Nal-Arg-Ala-D-Phe)-Dap-(Phe-Nal-Arg-Arg-Arg-Arg-Dap)]-Lys) [peptide 38 (Table 18)]

>  <label>
Yes

$$$$
>  <binder>
Trimesoyl-[dF][Phe(4-Cl)][dT][Pip′][2Nal]RA[dF][Dap]F[2Nal]RRRR[Dap]K (linker (positions not given here) via Trimesoyl; not fully specified (C-terminus, bridges); printed as bicyclo[Tm-(D-Phe-4-ClPhe-D-Thr-Pip-Nal-Arg-Ala-D-Phe)-Dap-(Phe-Nal-Arg-Arg-Arg-Arg-Dap)]-Lys) [peptide 30 (Table 18)]

>  <label>
Yes

$$$$
>  <binder>
Trimesoyl-[dF][Phe(4-F)][dT][Pip′][2Nal]RA[dF][Dap][dR]R[dR]R[2Nal][dF][Dap]K (linker (positions not given here) via Trimesoyl; not fully specified (C-terminus, bridges); printed as bicyclo[Tm-(D-Phe-Fpa-D-Thr-Pip-Nal-Arg-Ala-D-Phe)-Dap-(D-Arg-Arg-D-Arg-Arg-Nal-D-Phe-Dap)]-Lys) [peptide 45 (Table 18)]

>  <label>
No

$$$$
>  <binder>
Trimesoyl-[dF]H[dT][Pip′][2Nal]RA[dF][Dap]F[2Nal]RRRR[Dap]K (linker (positions not given here) via Trimesoyl; not fully specified (C-terminus, bridges); printed as bicyclo[Tm-(D-Phe-His-D-Thr-Pip-Nal-Arg-Ala-D-Phe)-Dap-(Phe-Nal-Arg-Arg-Arg-Arg-Dap)]-Lys) [peptide 31 (Table 18)]

>  <label>
No

$$$$
